The origin of these recorded values is ChEMBL document CHEMBL4028850.

assay.method.text: Cmax in guinea pig up to […], iv
Assay type: ADME, organism-based, Cavia porcellus
Design: dose 4.9 mg/kg, route intravenous
condition.context: in vivo
metric: Cmax
Returns: string containing the numeric result and its unit.

For Cc1cc(COc2nc(N)nc3ccn(Cc4ccccn4)c23)no1 the compound record lists Cmax as 9700 ng/mL

* * *

assay.method.text: Intrinsic clearance in human liver microsomes at 1 uM after 60 mins
Format: ADME, microsome
condition.context: read-out: CLH
metric: microsomal CLint at 1 µM (µL/min/mg)
The reply should contain only the number, in µL/min/mg.

Looking up Cc1cc(COc2nc(N)nc3ccn(Cc4ccccn4)c23)no1 , I see its microsomal CLint at 1 µM listed as 25

* * *

assay.method.text: Intrinsic clearance in cynomolgus monkey liver microsomes at 1 uM after 60 mins
Assay type: ADME, Macaca fascicularis, microsome
condition.context: read-out: CLH
metric: microsomal CLint at 1 µM
# include the unit after the value

# compound Cc1cc(COc2nc(N)nc3ccn(Cc4ccccn4)c23)no1 ; its microsomal CLint at 1 µM = 87 µL/min/mg

* * *

assay.method.text: Intrinsic clearance in rat hepatocytes assessed per million cells at 1 uM up to 120 mins
Type: ADME, cell-based, Hepatocyte
condition.context: read-out: CLH
metric: hepatocyte CLint at 1 µM

Quick note, hepatocyte CLint at 1 µM for Cc1cc(COc2nc(N)nc3ccn(Cc4ccccn4)c23)no1 landed at > 277 µL/min/1e6 cells

* * *

assay.method.text: Intrinsic clearance in rat liver microsomes at 1 uM after 60 mins
Format: ADME, microsome
condition.context: read-out: CLH
metric: microsomal CLint at 1 µM

Noted for Cc1cc(COc2nc(N)nc3ccn(Cc4ccccn4)c23)no1 : its microsomal CLint at 1 µM reads > 346 µL/min/mg

* * *

assay.method.text: Tmax in cynomolgus monkey at 1 to 10 mg/kg administered via oral gavage measured up to 72 hrs post dose
Type: ADME, organism-based, Macaca fascicularis
condition.context: in vivo
metric: Tmax

Lab book: Tmax of Cc1cc(COc2nc(N)nc3ccn(Cc4ccccn4)c23)no1 noted as 0.25 to 2 h

* * *

assay.method.text: Intrinsic clearance in dog liver microsomes at 1 uM after 60 mins
Assay type: ADME, Canis lupus familiaris, microsome
condition.context: read-out: CLH
metric: microsomal CLint at 1 µM (µL/min/mg)
A number alone suffices; assume µL/min/mg.

Data point: Cc1cc(COc2nc(N)nc3ccn(Cc4ccccn4)c23)no1 ; microsomal CLint at 1 µM = 44

* * *

assay.method.text: Intrinsic clearance in dog hepatocytes assessed per million cells at 1 uM up to 120 mins
Assay type: ADME, cell-based, Canis lupus familiaris, Hepatocyte
condition.context: read-out: CLH
metric: hepatocyte CLint at 1 µM
Mention the unit after the number when you answer.

Entry under test: Cc1cc(COc2nc(N)nc3ccn(Cc4ccccn4)c23)no1 . Its hepatocyte CLint at 1 µM was 7 µL/min/1e6 cells

* * *

assay.method.text: Oral bioavailability in cynomolgus monkey at 1 to 10 mg/kg administered via gavage measured up to 72 hrs post dose
Type: ADME, organism-based, Macaca fascicularis
condition.context: in vivo
metric: bioavailability

So, Cc1cc(COc2nc(N)nc3ccn(Cc4ccccn4)c23)no1 ? Its bioavailability was < 1%

* * *

assay.method.text: Tmax in dog at 1 mg/kg, po
Format: ADME, organism-based, Canis lupus familiaris
condition.context: in vivo
metric: Tmax (min)
Quick reminder: number only, in min, skip the unit.

The compound listed as Cc1cc(COc2nc(N)nc3ccn(Cc4ccccn4)c23)no1 has a reported Tmax of 30
